Where these numbers come from: the supplement of paper PMC6757056

B1: library; a variant is named by its letters at N, in order (parent)
chain: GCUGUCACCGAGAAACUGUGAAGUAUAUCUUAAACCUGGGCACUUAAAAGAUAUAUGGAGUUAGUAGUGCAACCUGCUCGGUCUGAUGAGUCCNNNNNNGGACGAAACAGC

# Variants of: B1
# assay text: normalized RNA/DNA level without ligand (relative to sTRSVctl = 100) (log10 (% of sTRSVctl)); HEK293T; ligand: cyclic di-GMP (c-di-GMP-II aptamer); higher = less ribozyme self-cleavage, higher mRNA level
# test conditions: reporter: mCherry (pCS4076), ligand present: no
readout name: normalized RNA/DNA level without ligand (log10)
Numbers only.

Observe how each entry below is paired with its result.
>  <residue string>
GCUGUCACCGAGAAACUGUGAAGUAUAUCUUAAACCUGGGCACUUAAAAGAUAUAUGGAGUUAGUAGUGCAACCUGCUCGGUCUGAUGAGUCCUAAUCUGGACGAAACAGC [UAAUCU]

>  <obs value>
1.72

$$$$
>  <residue string>
GCUGUCACCGAGAAACUGUGAAGUAUAUCUUAAACCUGGGCACUUAAAAGAUAUAUGGAGUUAGUAGUGCAACCUGCUCGGUCUGAUGAGUCCAUCGGUGGACGAAACAGC [AUCGGU]

>  <obs value>
1.65

$$$$
>  <residue string>
GCUGUCACCGAGAAACUGUGAAGUAUAUCUUAAACCUGGGCACUUAAAAGAUAUAUGGAGUUAGUAGUGCAACCUGCUCGGUCUGAUGAGUCCAUAUAGGGACGAAACAGC [AUAUAG]

>  <obs value>
1.61

$$$$
>  <residue string>
GCUGUCACCGAGAAACUGUGAAGUAUAUCUUAAACCUGGGCACUUAAAAGAUAUAUGGAGUUAGUAGUGCAACCUGCUCGGUCUGAUGAGUCCCAUCAAGGACGAAACAGC [CAUCAA]

>  <obs value>
1.32

$$$$
>  <residue string>
GCUGUCACCGAGAAACUGUGAAGUAUAUCUUAAACCUGGGCACUUAAAAGAUAUAUGGAGUUAGUAGUGCAACCUGCUCGGUCUGAUGAGUCCCUUCUAGGACGAAACAGC [CUUCUA]

>  <obs value>
1.44

$$$$
>  <residue string>
GCUGUCACCGAGAAACUGUGAAGUAUAUCUUAAACCUGGGCACUUAAAAGAUAUAUGGAGUUAGUAGUGCAACCUGCUCGGUCUGAUGAGUCCUUGAUGGGACGAAACAGC [UUGAUG]

>  <obs value>
1.55

$$$$
>  <residue string>
GCUGUCACCGAGAAACUGUGAAGUAUAUCUUAAACCUGGGCACUUAAAAGAUAUAUGGAGUUAGUAGUGCAACCUGCUCGGUCUGAUGAGUCCAAGGCCGGACGAAACAGC [AAGGCC]

>  <obs value>
1.76

$$$$
>  <residue string>
GCUGUCACCGAGAAACUGUGAAGUAUAUCUUAAACCUGGGCACUUAAAAGAUAUAUGGAGUUAGUAGUGCAACCUGCUCGGUCUGAUGAGUCCUCCGGUGGACGAAACAGC [UCCGGU]

>  <obs value>
1.67

$$$$
>  <residue string>
GCUGUCACCGAGAAACUGUGAAGUAUAUCUUAAACCUGGGCACUUAAAAGAUAUAUGGAGUUAGUAGUGCAACCUGCUCGGUCUGAUGAGUCCAUAACCGGACGAAACAGC [AUAACC]

>  <obs value>
1.75

$$$$
>  <residue string>
GCUGUCACCGAGAAACUGUGAAGUAUAUCUUAAACCUGGGCACUUAAAAGAUAUAUGGAGUUAGUAGUGCAACCUGCUCGGUCUGAUGAGUCCCUGAUUGGACGAAACAGC [CUGAUU]

>  <obs value>
1.51

$$$$

Report normalized RNA/DNA level without ligand (log10) for every entry below.
1. GCUGUCACCGAGAAACUGUGAAGUAUAUCUUAAACCUGGGCACUUAAAAGAUAUAUGGAGUUAGUAGUGCAACCUGCUCGGUCUGAUGAGUCCCCCACCGGACGAAACAGC [CCCACC]
2. GCUGUCACCGAGAAACUGUGAAGUAUAUCUUAAACCUGGGCACUUAAAAGAUAUAUGGAGUUAGUAGUGCAACCUGCUCGGUCUGAUGAGUCCCGCUACGGACGAAACAGC [CGCUAC]
3. GCUGUCACCGAGAAACUGUGAAGUAUAUCUUAAACCUGGGCACUUAAAAGAUAUAUGGAGUUAGUAGUGCAACCUGCUCGGUCUGAUGAGUCCACCUCAGGACGAAACAGC [ACCUCA]
4. GCUGUCACCGAGAAACUGUGAAGUAUAUCUUAAACCUGGGCACUUAAAAGAUAUAUGGAGUUAGUAGUGCAACCUGCUCGGUCUGAUGAGUCCUCAUUAGGACGAAACAGC [UCAUUA]
5. GCUGUCACCGAGAAACUGUGAAGUAUAUCUUAAACCUGGGCACUUAAAAGAUAUAUGGAGUUAGUAGUGCAACCUGCUCGGUCUGAUGAGUCCCGGAGCGGACGAAACAGC [CGGAGC]
6. GCUGUCACCGAGAAACUGUGAAGUAUAUCUUAAACCUGGGCACUUAAAAGAUAUAUGGAGUUAGUAGUGCAACCUGCUCGGUCUGAUGAGUCCUAUCACGGACGAAACAGC [UAUCAC]
7. GCUGUCACCGAGAAACUGUGAAGUAUAUCUUAAACCUGGGCACUUAAAAGAUAUAUGGAGUUAGUAGUGCAACCUGCUCGGUCUGAUGAGUCCAUUUACGGACGAAACAGC [AUUUAC]
8. GCUGUCACCGAGAAACUGUGAAGUAUAUCUUAAACCUGGGCACUUAAAAGAUAUAUGGAGUUAGUAGUGCAACCUGCUCGGUCUGAUGAGUCCGACCUGGGACGAAACAGC [GACCUG]

Data returned:
1: 1.73; 2: 1.65; 3: 1.62; 4: 1.5; 5: 1.61; 6: 1.75; 7: 1.73; 8: 1.66

Report normalized RNA/DNA level without ligand (log10) for every entry below.
1. GCUGUCACCGAGAAACUGUGAAGUAUAUCUUAAACCUGGGCACUUAAAAGAUAUAUGGAGUUAGUAGUGCAACCUGCUCGGUCUGAUGAGUCCAUGACGGGACGAAACAGC [AUGACG]
2. GCUGUCACCGAGAAACUGUGAAGUAUAUCUUAAACCUGGGCACUUAAAAGAUAUAUGGAGUUAGUAGUGCAACCUGCUCGGUCUGAUGAGUCCCAAUGGGGACGAAACAGC [CAAUGG]
3. GCUGUCACCGAGAAACUGUGAAGUAUAUCUUAAACCUGGGCACUUAAAAGAUAUAUGGAGUUAGUAGUGCAACCUGCUCGGUCUGAUGAGUCCCGCUUCGGACGAAACAGC [CGCUUC]
4. GCUGUCACCGAGAAACUGUGAAGUAUAUCUUAAACCUGGGCACUUAAAAGAUAUAUGGAGUUAGUAGUGCAACCUGCUCGGUCUGAUGAGUCCCAAAUGGGACGAAACAGC [CAAAUG]
5. GCUGUCACCGAGAAACUGUGAAGUAUAUCUUAAACCUGGGCACUUAAAAGAUAUAUGGAGUUAGUAGUGCAACCUGCUCGGUCUGAUGAGUCCAGCUAGGGACGAAACAGC [AGCUAG]
6. GCUGUCACCGAGAAACUGUGAAGUAUAUCUUAAACCUGGGCACUUAAAAGAUAUAUGGAGUUAGUAGUGCAACCUGCUCGGUCUGAUGAGUCCGAUUCCGGACGAAACAGC [GAUUCC]

Data returned:
[1.59, 1.66, 1.62, 1.64, 1.54, 1.8]

Report normalized RNA/DNA level without ligand (log10) for every entry below.
1. GCUGUCACCGAGAAACUGUGAAGUAUAUCUUAAACCUGGGCACUUAAAAGAUAUAUGGAGUUAGUAGUGCAACCUGCUCGGUCUGAUGAGUCCUGAUGGGGACGAAACAGC [UGAUGG]
2. GCUGUCACCGAGAAACUGUGAAGUAUAUCUUAAACCUGGGCACUUAAAAGAUAUAUGGAGUUAGUAGUGCAACCUGCUCGGUCUGAUGAGUCCUACAAAGGACGAAACAGC [UACAAA]

Data returned:
1: 1.68; 2: 1.65
